TGT: T1, human BDCA2-his protein (human, UniProt Q8WTT0 45-213)
T1 construct: also called BDCA2-his antigen protein
T1 sequence: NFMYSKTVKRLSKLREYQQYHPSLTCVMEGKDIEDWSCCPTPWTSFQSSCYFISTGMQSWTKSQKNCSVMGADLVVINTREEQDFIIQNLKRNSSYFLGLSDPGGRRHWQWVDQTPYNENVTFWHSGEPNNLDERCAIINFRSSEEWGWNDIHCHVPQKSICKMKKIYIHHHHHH
TEST_SUMMARY: ELISA, BDCA2-his coated at 0.1 ug/mL, anti-human Fc HRP
MEASURED_ATTRIBUTE: binding result

- BINDER: "230IL-NG-DI (antibody, V domains shown, Linked to the constant region of the IgG1 subtype) VH: QVQLVQSGAEVKKPGASVKVSCKASGYTFTSYLIHWVRQAPGQGLEWMGTIYPGGGDTSYNQKFKGRVTMTRDTSTSTVYMELSSLRSEDTAVYYCARMGDNEYFDYWGQGTLVTVSS VL: DIQMTQSPSSLSASVGDRVTITCRASGNIHNYLAWYQQKPGKAPKLLLYDAETLAIGVPSRFSGSGSGTDYTLTISSLQPEDFATYYCQHFWSTPYTFGGGTKVEIK"
  VALUE_MEASURED: "binds"
- BINDER: "230IL-DE (antibody, V domains shown, Linked to the constant region of the IgG1 subtype) VH: QVQLVQSGAEVKKPGASVKVSCKASGYTFTSYLIHWVRQAPGQGLEWMGTIYPGNGDTSYNQKFKGRVTMTRDTSTSTVYMELSSLRSEDTAVYYCARMGDNEYFDYWGQGTLVTVSS VL: DIQMTQSPSSLSASVGDRVTITCRASGNIHNYLAWYQQKPGKAPKLLLYDAETLAEGVPSRFSGSGSGTDYTLTISSLQPEDFATYYCQHFWSTPYTFGGGTKVEIK"
  VALUE_MEASURED: "binds"
